- Experimental target: T1, human VEGFA165 (human, UniProt P15692-4 27-191)
- T1 construct: Bought protein from two suppliers, treated as one molecule; the supplier is named under assay; also called antigen VEGFA
- T1 sequence (P15692 other isoform, or with tags, fused parts or gaps limits assumed): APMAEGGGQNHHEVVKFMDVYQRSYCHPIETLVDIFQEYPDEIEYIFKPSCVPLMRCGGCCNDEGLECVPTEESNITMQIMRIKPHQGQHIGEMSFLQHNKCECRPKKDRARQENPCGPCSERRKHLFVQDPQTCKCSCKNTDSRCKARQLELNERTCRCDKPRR
- Protocol details: competitive ELISA, coated VEGFA, competitor VEGFR2-ECD-Fc 1 nM
Result type: IC50 (nM)
Express it in nM; write the number only.

Reported IC50 of 2V1-EAAAK-Turn (VHH, Tandem bivalent nanobody) QLQLVESGGGSVQPGGSLRLSCEVSGRTFSSYTMGWFRQAPGKEREFVVAISKGGYKYDSVSLEARFTISKDNTKNTVYLQMNSLKPEDTAVYYCAATRAYGSSRLRLADTYEYWGQGTQVTVSSPDSEAAAKEAAAKEAAAKEAAAKEAAAKPDGSSQLQLVESGGGSVQPGGSLRLSCEVSGRTFSSYTMGWFRQAPGKEREFVVAISKGGYKYDSVSLEARFTISKDNTKNTVYLQMNSLKPEDTAVYYCAATRAYGSSRLRLADTYEYWGQGTQVTVSS : 1.56
